outcome_measure: melting point

# compound, melting point
measured = [
    ("Cc1nc(-c2cccc(-c3nc4sccn4c3-c3ccnc(N[C@@H]4CCCN(C(=O)OC(C)(C)C)C4)n3)c2)no1", "110 to 112 °C"),
    ("CNc1nc(C)nc(N2CCCc3ccccc32)n1", "159 to 160 °C"),
    ("CCCCCCCCCCCCCCCCNC(=O)c1cc(OCCBr)c2ccccc2c1O", "91 to 93 °C"),
    ("Cc1ccc(S(=O)(=O)Oc2ccc(S(=O)(=O)c3c(-c4ccccc4)cn4ccccc34)cc2)cc1", "168 °C"),
]

Give recorded melting point. COc1ccc(S(=O)(=O)Nc2cc(F)cc3c2Nc2ccc(O)cc2CO3)cc1
201 to 210 °C

Answer with reported melting point of COCOc1cc(OC)cc(C)c1C(=O)O
111 to 112 °C

Specify reported melting point for the compound shown: COc1cc2ncnc(NC3=CC(=O)C4(c5ccccc5)OC4C3=O)c2cc1OC (centres undefined)
252 to 253 °C

Consider the compound N[C@@H](Cc1ccccc1)C(=O)N(CC1CC(Br)=NO1)C(=O)OCc1ccccc1 (some centres undefined) . State its measured melting point.
122 to 125 °C

Give a short answer stating reported melting point for COc1cc2c(c(OC)c1OC)-c1cc(I)c(O)cc1[C@@H](NC(C)=O)CC2 .
210 °C

---

Known melting point of a selection of molecules

// below: answered molecules
# molecule, observed_value
records = [
    ("Cc1ccc(OC(=O)CCCC(=O)OOC(C)(C)C)cc1", "50 to 55 °C"),
    ("CCOC(=O)c1cc(=O)c(Oc2ccc(O)cc2)co1", "206 to 208 °C"),
    ("COc1ccc(/C=C/c2cc(/C=C/c3ccc4cc[nH]c4c3)n[nH]2)cc1OCc1ccccn1", "110 to 117 °C"),
    ("CC(C(=O)O)c1ccc2cc(OCc3nc4ccccc4s3)ccc2c1 (stereo not given)", "169 to 171 °C"),
    ("C[C@@](O)(C(=O)Nc1ccc(S(=O)(=O)c2ccccc2S(C)(=O)=O)cc1Cl)C(F)(F)F", "114 to 116 °C"),
    ("CCCc1cc(Cl)c(OC(C(=O)O)c2ccccc2)c(C(C)=O)c1O (stereo not given)", "131 to 133 °C"),
    ("O=C(Nc1nnc(C(F)(F)F)s1)c1ccc2ccccc2c1", "249 to 251 °C"),
    ("C=CCn1c(CSC#N)nc2ccccc2c1=O", "73 to 76 °C"),
    ("CC(C)NCCCCCCOc1ccc(O)cc1", "78 to 86 °C"),
]

Please supply the value of reported melting point for the item Clc1ccc2c(c1)N=C(NCCn1ccnc1)c1ccccc1N2
168 to 170 °C

---

outcome_measure: melting point

Before answering, review these 8 worked examples.
# molecule, outcome_measure, observed_value
rows = [
    ("CC[C@H]1COC(=O)N1c1nc(-c2ccc(Br)cc2)c(Cl)s1", "melting point", "137 to 139 °C"),
    ("CN(CCOc1ccc(CC2SC(=O)NC2=O)cc1)c1nc2ccccc2s1 (stereo unspecified)", "melting point", "167 to 168 °C"),
    ("Oc1ccc(Cn2c(S)nc3ccccc32)cc1", "melting point", "216 to 220 °C"),
    ("O=[N+]([O-])c1ccc(C2CCNCC2)cc1", "melting point", "90 to 92 °C"),
    ("CC(C)(C)c1cc(C(CCc2ccccc2)NCP(=O)(O)O)cc(C(C)(C)C)c1O (stereo unspecified)", "melting point", "162 to 169 °C"),
    ("COC(=O)c1cc(Cl)cc(CC=O)c1O", "melting point", "49 to 59 °C"),
    ("FC(F)(F)C1(c2cc(Cl)cc(Cl)c2)CC(c2cnc(Cl)c(Cl)c2)=NO1 (stereo unspecified)", "melting point", "155 to 157 °C"),
    ("NC(=O)/C=C/c1cnoc1-c1ccccc1", "melting point", "194 to 196 °C"),
]

Using the record for CN(C(=O)CBr)c1ccc(Cl)cc1Cc1ccccc1 , state its measured melting point.
78 °C

Find the measured melting point of CNc1nc(C)c(C)cc1NC(=O)N1CCN(c2cc(C)cc(C)c2)CC1 and report it.
160 to 162 °C

---

Measured melting point of individual entries
Give the quantity in °C, number only.

Sample records with melting point:
# compound, quantity_unit, observed_value
rows = [
    ("O=C1Nc2ccsc2C(=O)N2CC[C@@H]12", "°C", 274),
    ("O=C(O)c1ccccc1SSc1ccc([N+](=O)[O-])cc1C(Cl)(Cl)Cl", "°C", 224),
    ("CCS(=O)(=O)Oc1cccc([N+](=O)[O-])c1", "°C", 110),
    ("CCCNC(=O)Nc1ccccc1C(=O)OC", "°C", 102),
]

Then this compound:
Give the measured melting point for O=C(c1ccc(F)c(F)c1)N1CCCC(c2noc(-c3ccc[nH]3)n2)C1 (stereo not given)
168

---

Each record here notes measured melting point.

These recorded examples may help you get a feel for the data.
# compound, observed_value
measured = [
    ("CCCC1=Nc2ccccc2CC(c2ccsc2)N1C (centres undefined)", "44.5 to 46.5 °C"),
    ("COc1cc2c(cc1Nc1ncc(Cl)c(Nc3ccccc3S(=O)(=O)N(C)C)n1)CCN(CC(C)O)CC2 (centres undefined)", "183 to 185 °C"),
    ("COc1ccc(N2CCN(c3c(C)c(C)c4c(c3C)CC(C)(CN3CCCC3)O4)CC2)cc1 (centres undefined)", "129 to 132 °C"),
    ("CC(C)c1cccc(C(C)C)c1N1C(=O)c2cccc3c(C#N)ccc(c23)C1=O", "291 °C"),
]

Supply measured melting point of O=C(O)c1ccc(OC2=C3N=C4CCCCC4=C3C(CCCCc3ccccc3)C=C2)o1 (centres undefined) in your reply.
120 to 121 °C

Give the measured melting point for O=C(Cl)N1CC(Oc2ccc(Cl)cc2)C1
78 to 80 °C

Please indicate melting point recorded for O=[N+]([O-])c1nccn1CC(O)CC1C2CCCN21 (centres undefined)
81 to 81.5 °C

Give recorded melting point. COCCOc1ccc(/C=C/C(=O)O)c(OCC2CC2)c1
118 to 119 °C

Answer with reported melting point of NC(=O)CN1C(=O)[C@@H](NC(=O)c2cc3ccccc3[nH]2)[C@H](c2ccccc2)Sc2ccccc21 (relative stereo)
222 to 225 °C

---

Catalogue of melting point readings, one per entry.

# compound, outcome_measure, observed_value
measured = [
    ("O=C1CN(c2cc(Oc3ccccc3)ccc2O)S(=O)(=O)N1", "melting point", "153 to 157 °C"),
    ("CC(C)Cn1c(CNC(=O)OC(C)(C)C)c(-c2ccc(Cl)cc2)c2cc(/C=C/C(=O)O)ccc2c1=O", "melting point", "147 to 149 °C"),
]

Please report the measured melting point for CCCSc1csc(C(=O)OC)c1S(=O)(=O)NC(C)(C)C
93 to 98 °C

Look up and state reported melting point for COc1ccc(C)cc1NC(=O)Nc1ccc(N2CCN(C(=O)Nc3ccc(OCCO)cc3C(F)(F)F)CC2)c(C#N)c1
135 to 137 °C

Identify measured melting point associated with Cn1c(=O)[nH]c(=O)c2c1ncn2CC(C)(C)O
268 to 269 °C

---

outcome_measure: melting point

See these solved cases before continuing.
# compound, melting point
rows = [
    ("CC1CC2C3C=C(Cl)C4=CC(=O)CCC4(C)C3C(O)CC2(C)C1C(=O)CO (centres undefined)", "229 °C"),
    ("COc1ccc(C2=NN(C3CCN(S(=O)(=O)Cc4ccccc4)CC3)C(=O)CC2)cc1OC", "114 °C"),
    ("O=C(Cc1ccccc1)N[C@H](Cc1ccc(C(F)(F)F)cc1)[C@@H](O)c1ccc(F)cc1 (racemic)", "173 to 174 °C"),
    ("COCOc1cc(C(=O)O)ccc1-c1ccc(-c2ccccc2)c(-c2ccc3c(c2)C(C)(C)CCC3(C)C)c1", "122 °C"),
]

Name the recorded melting point of the compound listed here: O=C(c1ccc(Cl)cc1)[C@H]1C[C@H]1C(=O)O (relative stereo)
150 to 153 °C

Indicate the recorded melting point value for this compound: CCOC(=O)c1cc(-c2ccc(Cl)cc2)cnc1C(Cl)Cl
132 to 134 °C

Entry CNC(=O)c1cc2c(Oc3ccc(Br)cc3)cncc2s1 needs its melting point filled in; supply it.
78 to 80 °C

Please list melting point recorded for the compound CC(=O)c1ccc(OCCCCOc2ccccc2)cc1
104 to 106 °C

Identify measured melting point corresponding to C=CCc1cc2c(cc1O)CC(CCc1ccccc1)O2 (centres undefined)
79 to 80 °C

---

outcome_measure: melting point

Some solved entries appear below for comparison.
# smiles_text, melting point
data = [
    ("COc1ccc(C2(C#Cc3csc(C(=O)O)c3)CCC(=O)CC2)cc1OC1CCCC1", "80 to 82 °C"),
    ("CC(=O)N1CC(C)(C)c2cc3nc[nH]c3cc21", "214 to 216 °C"),
    ("CN1CCNS(=O)(=O)c2cc(Oc3ccccc3)ccc21", "128 to 131 °C"),
    ("CCOC(=O)C(=CNc1ccnn1Cc1ccncc1)C(=O)OCC", "95 to 97 °C"),
]

Consider now this further molecule.
Read the entry CC(C)NNC(=O)NC1c2ccccc2Oc2ccccc21 and write its reported melting point.
162 °C
